The reported numbers originate from patent US12152038B2.

testedTarget: human Arginine Vasopressin Receptor 1a (AVPR1a) (Homo sapiens)
Construct: expressed in transfected cells; host or cells: CHO (CHO-AVPR1a, kept under G418 selection)
Sequence (P37288 whole entry): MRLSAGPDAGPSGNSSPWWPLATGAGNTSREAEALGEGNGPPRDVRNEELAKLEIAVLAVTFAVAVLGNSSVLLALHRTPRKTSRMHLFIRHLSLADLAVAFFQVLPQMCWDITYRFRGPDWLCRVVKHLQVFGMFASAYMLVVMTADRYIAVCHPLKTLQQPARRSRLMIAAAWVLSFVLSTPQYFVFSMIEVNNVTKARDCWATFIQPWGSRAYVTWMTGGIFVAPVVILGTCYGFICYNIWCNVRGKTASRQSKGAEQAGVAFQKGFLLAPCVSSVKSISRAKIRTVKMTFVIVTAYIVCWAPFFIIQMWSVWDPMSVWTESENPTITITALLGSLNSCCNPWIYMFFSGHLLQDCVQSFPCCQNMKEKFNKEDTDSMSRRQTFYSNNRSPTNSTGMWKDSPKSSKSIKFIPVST
testSummary: Vasopressin V1a receptor antagonist assay (FLIPR calcium, CHO-AVPR1a cells)
Assay type: cell-based
measurementType: IC50

Solved entries (count: 5):
CCC1COc2cc(F)ccc2N1C(=O)N1CC2(C1)CN(c1ccc(F)cn1)C2 (stereo not shown) : < 100 nM
Cc1ccnc(N2CC3(CN(C(=O)N4c5ccc(Cl)cc5OCC4C)C3)C2)c1 (single isomer, unassigned) [20-11-A] : 500 to 1000 nM
CC1COc2cc(Cl)ccc2N1C(=O)N1CC2(C1)CN(c1nn(C)c3ncccc13)C2 (single isomer, unassigned) [20-15-B] : < 100 nM
CC1COc2cc(F)ccc2N1C(=O)N1CC2(C1)CN(c1ccccn1)C2 (single isomer, unassigned) [1-66-B] : < 100 nM
CC1COc2cc(Cl)ccc2N1C(=O)N1CC2(C1)CN(c1ncccc1F)C2 (single isomer, unassigned) [1-57-B] : ≥ 1000 nM

Please tell me the measured IC50 for `O=C(N1CC2(C1)CN(c1ccccn1)C2)N1CCc2cc(Cl)ccc21` ; system: human Arginine Vasopressin Receptor 1a (AVPR1a) (Homo sapiens). < 100 nM

State IC50 on human Arginine Vasopressin Receptor 1a (AVPR1a) (Homo sapiens). Entry: COc1ccc2c(c1)OCC(C)N2C(=O)N1CC2(C1)CN(c1ccc(F)cn1)C2 (single isomer, unassigned) [1-59-B] < 100 nM

GET IC50 | system: human Arginine Vasopressin Receptor 1a (AVPR1a) (Homo sapiens) | item: CC1COc2cc(F)ccc2N1C(=O)N1CC2(C1)CN(c1ncccn1)C2 (stereo not shown) < 100 nM

Answer briefly: IC50 recorded on human Arginine Vasopressin Receptor 1a (AVPR1a) (Homo sapiens) for O=C(N1CC2(C1)CN(c1cnccn1)C2)N1CCC(O)c2cc(Cl)ccc21 (stereo not shown) [13-3] < 100 nM

---

Recorded measurements of efflux ratio at 1 h, 10 μM, one per entry
testSummary: Wild-type MDCK permeability and efflux assay (Papp, efflux ratio)
Type: in vitro ADME
condition: dog, pH 7.4; Papp B>A/Papp A>B, wild-type MDCK cells; read-out: ER WT (Efflux Ratio)

Cc1nccnc1N1CC2(CN(C(=O)N3c4ccc(Cl)cc4OCC3C)C2)C1 (stereo not shown) [20-10] : < 1

Tell me measured efflux ratio at 1 h, 10 μM for CC1COc2cc(Cl)c(F)cc2N1C(=O)N1CC2(C1)CN(c1cccnn1)C2 (stereo not shown) [19-4] please. < 1

Supply measured efflux ratio at 1 h, 10 μM of CC1COc2cc(Cl)ccc2N1C(=O)N1CC2(C1)CN(c1ccncn1)C2 (stereo not shown) [21-6] in your reply. < 1

Give recorded efflux ratio at 1 h, 10 μM. O=C(N1CC2(C1)CN(c1ccccn1)C2)N1CCOc2cc(Cl)ccc21 [8-2] < 1

Specify measured efflux ratio at 1 h, 10 μM for CC1COc2cc(Cl)ccc2N1C(=O)N1CC2(C1)CN(c1nccc(C(F)(F)F)n1)C2 (stereo not shown) [21-10] . 1 to 2

Indicate the recorded efflux ratio at 1 h, 10 μM value for this compound: O=C(N1CC2(C1)CN(c1ccccn1)C2)N1CCOCc2cc(Cl)ccc21 [8-12] < 1

---

Overview of recorded efflux ratio at 1 h, 10 μM for various molecules
testSummary: Wild-type MDCK permeability and efflux assay (Papp, efflux ratio)
Type: in vitro ADME
condition: dog, pH 7.4; Papp B>A/Papp A>B, wild-type MDCK cells; read-out: ER WT (Efflux Ratio)

Answered examples (3):
CC1COc2cc(F)ccc2N1C(=O)N1CC2(C1)CN(c1ccc(F)cn1)C2 (single isomer, unassigned) : < 1
Cc1nc(N2CC3(CN(C(=O)N4c5ccc(Cl)cc5OCC4C)C3)C2)ncc1F (single isomer, unassigned) : < 1
Cc1cnnc(N2CC3(CN(C(=O)N4c5ccc(Cl)cc5OCC4C)C3)C2)c1 (stereo not shown) : 1 to 2

We next turn to a different molecule, shown below.
Output measured efflux ratio at 1 h, 10 μM for this item: COc1ccnc(N2CC3(CN(C(=O)N4c5ccc(Cl)cc5OCC4C)C3)C2)n1 (stereo not shown) [20-9] < 1

---

Listed here are compounds together with their documented pIC50.
testedTarget: human Arginine Vasopressin Receptor V2 (AVPR2) (Homo sapiens, UniProt P30518)
Sequence (P30518 whole entry): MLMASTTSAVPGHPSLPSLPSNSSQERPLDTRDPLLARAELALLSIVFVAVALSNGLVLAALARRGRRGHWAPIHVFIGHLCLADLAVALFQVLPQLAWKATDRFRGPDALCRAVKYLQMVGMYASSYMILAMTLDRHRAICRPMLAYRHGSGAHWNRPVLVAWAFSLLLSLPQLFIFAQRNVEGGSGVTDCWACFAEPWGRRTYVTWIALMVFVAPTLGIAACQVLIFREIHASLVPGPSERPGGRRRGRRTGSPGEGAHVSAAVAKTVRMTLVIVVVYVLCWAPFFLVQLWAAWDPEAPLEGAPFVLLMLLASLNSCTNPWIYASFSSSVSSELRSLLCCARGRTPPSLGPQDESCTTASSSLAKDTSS
testSummary: Vasopressin V2 receptor antagonist assay (TR-FRET cAMP, 1321N1 cells)
pIC50: −log10 of the molar value.

Answered cases to consult:
CC1COc2cc(Cl)ccc2N1C(=O)N1CC2(C1)CN(c1nn(C)c3ncccc13)C2 (single isomer, unassigned) [20-15-B] : > 7.00
CC1COc2cc(Cl)ccc2N1C(=O)N1CC2(C1)CN(c1ccc(F)cn1)C2 (single isomer, unassigned) [1-73-B] : > 7.00
Cc1cccc(N2CC3(CN(C(=O)N4CCOc5cc(Cl)ccc54)C3)C2)n1 [1-3] : 6.30 to 7.00

Quote pIC50 reported for Cc1cnc(N2CC3(CN(C(=O)N4c5ccc(Cl)cc5OCC4C)C3)C2)nc1 (single isomer, unassigned) [20-13-B] please. > 7.00

Answer with the recorded pIC50 of O=C(N1CC2(C1)CN(c1cccc(F)n1)C2)N1CCOc2cc(Cl)ccc21 [1-69] only. ≤ 6.00

Supply measured pIC50 of O=C(N1CC2(C1)CN(c1ccc(F)cn1)C2)N1CCC(O)c2cc(Cl)ccc21 (single isomer, unassigned) [13-1-B] in your reply. ≤ 6.00

Identify pIC50 associated with the compound CC1COc2cc(F)ccc2N1C(=O)N1CC2(C1)CN(c1cc(C#N)ccn1)C2 (single isomer, unassigned) [20-3-B] 6.30 to 7.00

---

Reported efflux ratio at 1 h, 10 μM values follow for various compounds
testedTarget: MDR1 (P-glycoprotein) (Homo sapiens, UniProt P08183)
Construct: host or cells: MDCK (MDR1-MDCK; wild-type MDCK as comparator)
Sequence (P08183 whole entry): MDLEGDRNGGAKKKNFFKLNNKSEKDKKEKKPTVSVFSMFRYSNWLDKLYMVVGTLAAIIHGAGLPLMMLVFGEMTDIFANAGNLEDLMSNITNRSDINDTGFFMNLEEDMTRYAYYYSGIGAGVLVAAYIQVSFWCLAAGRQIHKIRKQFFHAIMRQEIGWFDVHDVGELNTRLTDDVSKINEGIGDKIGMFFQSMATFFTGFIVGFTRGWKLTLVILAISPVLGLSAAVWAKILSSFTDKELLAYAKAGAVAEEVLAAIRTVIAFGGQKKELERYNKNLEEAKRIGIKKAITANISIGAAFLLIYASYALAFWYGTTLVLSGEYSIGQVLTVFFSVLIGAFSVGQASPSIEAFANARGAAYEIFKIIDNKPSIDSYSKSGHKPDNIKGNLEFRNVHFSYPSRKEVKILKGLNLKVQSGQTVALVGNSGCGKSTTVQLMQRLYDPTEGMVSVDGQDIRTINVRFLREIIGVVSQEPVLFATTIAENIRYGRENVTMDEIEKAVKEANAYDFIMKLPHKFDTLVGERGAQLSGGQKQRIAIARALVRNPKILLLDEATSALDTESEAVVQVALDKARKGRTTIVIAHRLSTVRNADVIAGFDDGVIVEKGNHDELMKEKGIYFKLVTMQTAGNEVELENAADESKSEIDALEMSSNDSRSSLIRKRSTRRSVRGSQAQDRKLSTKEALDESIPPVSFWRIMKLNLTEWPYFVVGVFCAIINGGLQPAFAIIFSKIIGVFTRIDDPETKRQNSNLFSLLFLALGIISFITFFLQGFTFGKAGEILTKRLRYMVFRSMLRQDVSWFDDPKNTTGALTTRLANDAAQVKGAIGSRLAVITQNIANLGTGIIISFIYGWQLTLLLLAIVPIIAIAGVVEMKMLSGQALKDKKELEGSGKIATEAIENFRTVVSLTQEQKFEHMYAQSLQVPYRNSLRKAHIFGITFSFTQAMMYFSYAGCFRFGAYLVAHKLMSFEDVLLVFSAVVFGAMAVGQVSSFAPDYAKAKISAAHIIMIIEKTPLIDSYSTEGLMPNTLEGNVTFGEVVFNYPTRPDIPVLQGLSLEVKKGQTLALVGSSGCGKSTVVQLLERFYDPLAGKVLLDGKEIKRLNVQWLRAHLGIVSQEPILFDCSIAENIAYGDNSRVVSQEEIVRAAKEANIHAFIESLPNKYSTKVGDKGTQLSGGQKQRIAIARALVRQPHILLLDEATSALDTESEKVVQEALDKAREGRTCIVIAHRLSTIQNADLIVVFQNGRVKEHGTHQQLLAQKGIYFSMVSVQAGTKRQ
testSummary: MDR1-MDCK permeability and efflux assay (Papp, efflux ratio, effective efflux ratio)
Assay type: in vitro ADME
condition: dog, MDCK-MDR1, pH 7.4, Papp B>A/Papp A>B, MDR1-MDCK cells; read-out: ER MDR1 (Efflux Ratio)

Below, each entry is followed by its recorded efflux ratio at 1 h, 10 μM result.
CC1COc2cc(F)c(F)cc2N1C(=O)N1CC2(C1)CN(c1ncccn1)C2 (single isomer, unassigned) : 1 to 2
Cc1ccnc(N2CC3(CN(C(=O)N4c5ccc(Cl)cc5OCC4C)C3)C2)n1 (single isomer, unassigned) : 1 to 2
CC1COc2cc(Cl)ccc2N1C(=O)N1CC2(C1)CN(c1ncncc1F)C2 (stereo not shown) : 1 to 2

Check the records and state efflux ratio at 1 h, 10 μM for CC1COc2cc(Cl)ccc2N1C(=O)N1CC2(C1)CN(c1ccccn1)C2 (single isomer, unassigned) [1-60-B] < 1

Using the record for CC1COc2cc(F)ccc2N1C(=O)N1CC2(C1)CN(c1cc(C#N)ccn1)C2 (stereo not shown) [20-3] , state its measured efflux ratio at 1 h, 10 μM. 1 to 2

---

// values below are reported pIC50
testedTarget: human Arginine Vasopressin Receptor 1a (AVPR1a) (Homo sapiens)
testSummary: Vasopressin V1a receptor antagonist assay (FLIPR calcium, CHO-AVPR1a cells)
pIC50: −log10 of the molar value.

Using the record for `O=C(N1CC2(C1)CN(c1ncccn1)C2)N1CCOc2cc(Cl)ccc21` , state its measured pIC50. > 7.00

Identify measured pIC50 corresponding to `O=C(N1CC2(C1)CN(c1ccc(F)cc1)C2)N1CCOc2cc(Cl)ccc21` 6.30 to 7.00

Supply reported pIC50 belonging to this molecule: O=C(N1CC2(C1)CN(c1ncccc1F)C2)N1CCC(O)c2cc(Cl)ccc21 (single isomer, unassigned) [13-4-A] > 7.00

Write down pIC50 measured for item Cc1cnc(N2CC3(CN(C(=O)N4c5ccc(Cl)cc5OCC4C)C3)C2)nc1 (single isomer, unassigned) [20-13-A] ≤ 6.00

Give a short answer stating reported pIC50 for `O=C(N1CC2(C1)CN(c1ccc(F)cn1)C2)N1CCOc2cc(Cl)ccc21` . > 7.00

Give pIC50 for the following molecule: CC1CN(C(=O)N2CC3(C2)CN(c2ccc(F)cn2)C3)c2ccc(F)cc2O1 (single isomer, unassigned) [9-4-A] 6.30 to 7.00

---

Items are presented alongside their recorded IC50.
testedTarget: human Arginine Vasopressin Receptor 1a (AVPR1a) (Homo sapiens)
testSummary: Vasopressin V1a receptor antagonist assay (FLIPR calcium, CHO-AVPR1a cells)

CC1COc2cc(Cl)ccc2N1C(=O)N1CC2(C1)CN(c1noc3cccnc13)C2 (single isomer, unassigned) [18-3-A] : ≥ 1000 nM

Entry CC1COc2cc(Cl)c(F)cc2N1C(=O)N1CC2(C1)CN(c1cccnn1)C2 (single isomer, unassigned) [19-4-A] needs its IC50 filled in; supply it. < 100 nM

Give the measured IC50 for `O=C(N1CC2(CN(Cc3ccccn3)C2)C1)N1CCOc2cc(Cl)ccc21` ≥ 1000 nM

In one line, give reported IC50 of the entry CC1COc2cc(F)ccc2N1C(=O)N1CC2(C1)CN(c1ncccc1F)C2 (stereo not drawn) [1-67] . < 100 nM

Write down IC50 measured for item `CC1(C)CCN(C(=O)N2CC3(C2)CN(c2ccc(F)cn2)C3)c2ccc(Cl)cc21` < 100 nM

Note IC50 for the molecule shown: `Cc1ncccc1N1CC2(CN(C(=O)N3CCOc4cc(Cl)ccc43)C2)C1` 500 to 1000 nM

Entry CCC1COc2cc(Cl)ccc2N1C(=O)N1CC2(C1)CN(c1ccccn1)C2 (stereo not drawn) needs its IC50 filled in; supply it. < 100 nM

For the molecule COc1ccnc(N2CC3(CN(C(=O)N4c5ccc(Cl)cc5OCC4C)C3)C2)n1 (single isomer, unassigned) [20-9-B] , give its reported IC50. < 100 nM

Identify measured IC50 corresponding to `Cc1cnc(N2CC3(CN(C(=O)N4CCOc5cc(Cl)ccc54)C3)C2)nc1` 100 to 500 nM

Identify measured IC50 corresponding to CC1COc2cc(Cl)ccc2N1C(=O)N1CC2(C1)CN(c1nccc(C(F)(F)F)n1)C2 (stereo not drawn) < 100 nM

For the molecule Cc1nc(N2CC3(CN(C(=O)N4c5ccc(Cl)cc5OCC4C)C3)C2)ncc1F (single isomer, unassigned) [20-7-A] , give its reported IC50. ≥ 1000 nM

Identify measured IC50 associated with CC1COc2cc(Cl)ccc2N1C(=O)N1CC2(C1)CN(c1nccc(C#N)n1)C2 (single isomer, unassigned) [20-16-B] < 100 nM

Let me know recorded IC50 for CC1COc2cc(Cl)ccc2N1C(=O)N1CC2(C1)CN(c1cccnc1)C2 (single isomer, unassigned) [20-1-A] , thanks. ≥ 1000 nM

Hello, please tell me recorded IC50 for this one: `Cc1nc(N2CC3(CN(C(=O)N4CCOc5cc(Cl)ccc54)C3)C2)no1` 100 to 500 nM

Fill in reported IC50 for this entry: CC1COc2cc(F)ccc2N1C(=O)N1CC2(C1)CN(c1ccc(F)cn1)C2 (single isomer, unassigned) [12-1-A] ≥ 1000 nM

Return the recorded IC50 value; entry: CC1COc2cc(F)ccc2N1C(=O)N1CC2(C1)CN(c1cc(C#N)ccn1)C2 (single isomer, unassigned) [20-3-B] < 100 nM

For the molecule CC1COc2cc(Cl)ccc2N1C(=O)N1CC2(C1)CN(c1noc3cccnc13)C2 (single isomer, unassigned) [18-3-B] , give its reported IC50. < 100 nM

Give the reported value of IC50 for this record: `O=C(N1CC2(C1)CN(c1cc(F)ccn1)C2)N1CCc2cc(Cl)ccc21` < 100 nM

Fill in IC50 for record `COc1ccc(N2CC3(CN(C(=O)N4CCOc5cc(Cl)ccc54)C3)C2)cn1` 100 to 500 nM

For the molecule `O=C(N1CC2(CN(Cc3ccc(F)cn3)C2)C1)N1CCOc2cc(Cl)ccc21` , give its measured IC50 value. ≥ 1000 nM

Give IC50 for the following molecule: O=C(N1CC2(C1)CN(c1ccc(F)cn1)C2)N1CCC(O)c2cc(Cl)ccc21 (single isomer, unassigned) [13-1-A] < 100 nM

Given `O=C(N1CC2(C1)CN(c1ccc(F)cn1)C2)N1CCOc2ncccc21` , respond with its IC50. ≥ 1000 nM

Identify IC50 associated with the molecule CC1COc2cc(Cl)c(F)cc2N1C(=O)N1CC2(C1)CN(c1cccnc1)C2 (stereo not drawn) < 100 nM

Annotate the molecule Cc1ccnc(N2CC3(CN(C(=O)N4c5ccc(Cl)cc5OCC4C)C3)C2)n1 (single isomer, unassigned) [20-12-B] with its measured IC50. < 100 nM

Note down IC50 recorded for `COc1cnc(N2CC3(CN(C(=O)N4CCOc5cc(Cl)ccc54)C3)C2)nc1` 100 to 500 nM
